Below, each entry is listed with its recorded Fab Tm (DSF, ° C.).
- method_summary: Fab Tm by dynamic scanning fluorimetry (DSF)
- Assay type: physicochemical
- assay_setup: optimized antibodies

{"molecule": "ADI-71709: anti-IL18-BP antibody, sequences in FIG. 2A; 66650 lineage (antibody, V domains shown) VH: QVQLVQSGAEVKKPGASVKVSCEASGYTFDIYAVHWVRQAPGQRLEWMGWIHAGTGATKYSQKFQGRVTITRDTSASTAYMELSSLRSEDTAVYYCARGLGEVGPTGTSWFDPWGQGTLVTVSS VL: DIQMTQSPSTLSASVGDRVTITCRASQSISSWLAWYQQKPGKAPKLLIYEASSLESGVPLRFSGSGSGTEFTLTISSLQPDDFATYYCQQYRQSPFTFGGGTKVEIK", "Fab Tm (DSF, ° C.) (°C)": 71.5}
{"molecule": "ADI-71742: anti-IL18-BP antibody, sequences in FIG. 2Q (antibody, V domains shown) VH: QLQLQESSPGLVKPSETLSLTCTVSGGSISSPDYPWGWIRQPPGKGLEWIGSIFYSGNTYYNPSLKSRVTISVDTSKNQFSLKLSSVTAADTAVYYCARGPHRQVFDYWGQGTLVTVSS VL: DIQMTQSPSSVSASVGDRVTITCRASQGISSWLAWYQQKPGKAPKLLIYAASSLQSGVPSRFSGSGSGTDFTLTISSLQPEDFATYYCQQGWSFPYTFGGGTKVEIK", "Fab Tm (DSF, ° C.) (°C)": 74.0}
{"molecule": "ADI-71722: anti-IL18-BP antibody, sequences in FIG. 2D; 66670 lineage (antibody, V domains shown) VH: QVQLVQSGAEVKKPGSSVKVSCKASGGTFSEYPISWVRQAPGQGLEWMGGIIPGAGTAIYAQKFQGRVTITADESTSTAYMELSSLRSEDTAVYYCARGRHFHETWGQGTLVTVSS VL: DIQMTQSPSSVSASVGDRVTITCRASQGISSWLAWYQQKPGKAPKLLIYAASSLQSGVPSRFSGSGSGTDFTLTISSLQPEDFATYYCQQVYRFPWTFGGGTKVEIK", "Fab Tm (DSF, ° C.) (°C)": 73.0}
{"molecule": "ADI-71736: anti-IL18-BP antibody, sequences in FIG. 2L; 66716 lineage (antibody, V domains shown) VH: QLQLQESGPGLVKPSETLSLTCTVSGGSISSSEYGWGWIRQPPGKGLEWIGSIVNSGSTYYNPSLKSRVTISVDTSKNQFSLKLSSVTAADTAVYYCARGPHRQVFDYWGQGTLVTVSS VL: DIQMTQSPSSVSASVGDRVTITCRASQGISSWLAWYQQKPGKAPKHLIYAASSLQSGVPSRFSGSGSGTDFTLTISSLQPEDFATYYCQQGFSFPYTFGGGTKVEIK", "Fab Tm (DSF, ° C.) (°C)": 73.5}
